protocol: Identification of antibody-drug conjugate (ADC) payloads which are substrates of ATP-binding cassette drug efflux transporters: ABCG2-H460 cell line
conditions: H460 MX20 (ABCG2) viability, CellTiter-Glo, 48 h
Inconclusive results are not listed. Active and inactive are the calls of the source. Calls come from the whole dose curve; as a rule, active = well fitted inhibition curve with a large enough effect; inconclusive = small, poorly fitted or top-dose-only effect; inactive = flat fitted curve, though single readings scatter.
Entries and their Potency

Record excerpt, results attached:
>  <compound>
CCN(C(C)=O)[C@H]1CO[C@@H](O[C@H]2[C@H](O[C@H]3C#C/C=C\C#C[C@]4(O)CC(=O)C(NC(=O)OC)=C3/C4=C\CSSSC)O[C@H](C)[C@@H](NO[C@H]3C[C@H](O)[C@H](SC(=O)c4c(C)c(I)c(O[C@@H]5O[C@@H](C)[C@H](O)[C@@H](OC)[C@H]5O)c(OC)c4OC)[C@@H](C)O3)[C@@H]2O)C[C@@H]1OC

>  <result-value>
7.5 nM (active)

$$$$
>  <compound>
CN(C)CCOc1ccc2[nH]c(C(=O)N3C[C@@H](CCl)c4c3cc(O)c3ccccc43)cc2c1

>  <result-value>
0.2 nM (active)

$$$$
>  <compound>
CCN[C@H]1CO[C@@H](O[C@H]2[C@H](O[C@H]3C#C/C=C\C#C[C@]4(O)CC(=O)C(NC(=O)OC)=C3/C4=C\CSSSC)O[C@H](C)[C@@H](NO[C@H]3C[C@H](O)[C@H](SC(=O)c4c(C)c(I)c(O[C@@H]5O[C@@H](C)[C@H](O)[C@@H](OC)[C@H]5O)c(OC)c4OC)[C@@H](C)O3)[C@@H]2O)C[C@@H]1OC

>  <result-value>
1.1 nM (active)

$$$$
>  <compound>
COC(=O)c1cc2c3c(cc(O)c2[nH]1)N(C(=O)c1cc2cc(OC)c(OC)c(OC)c2[nH]1)CC3CCl (configuration not stated)

>  <result-value>
0.4 nM (active)

$$$$
>  <compound>
CC(C)(C)OC(=O)Nc1ccc2[nH]c(C(=O)N3C[C@@H](CCl)c4c3cc(O)c3ccccc43)cc2c1

>  <result-value>
2.1 nM (active)

$$$$
>  <compound>
CC[C@]1(O)CC2CN(CCc3c([nH]c4ccccc34)[C@@](C(=O)OC)(c3cc4c(cc3OC)N(C)[C@H]3[C@@](O)(C(=O)OC)[C@H](OC(C)=O)[C@]5(CC)C=CCN6CC[C@]43[C@@H]65)C2)C1 (some centres not stated)

>  <result-value>
533 nM (active)

$$$$

# ---- query compound ----
Give the measured Potency of COc1cccc2c1C(=O)c1c(O)c3c(c(O)c1C2=O)C[C@@](O)(C(=O)CO)C[C@@H]3O[C@H]1C[C@H]2[C@H](O[C@@H]3[C@@H](OC)OCCN32)[C@H](C)O1 .
0.0598 nM (active)
